Below: a set of entries, each annotated with reported pKd.
systemUnderTest: T1, Activin A (UniProt P08476 311-426)
T1 sequence (looked up): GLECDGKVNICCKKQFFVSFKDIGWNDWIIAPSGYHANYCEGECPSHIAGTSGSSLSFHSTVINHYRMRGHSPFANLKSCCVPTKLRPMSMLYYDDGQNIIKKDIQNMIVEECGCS
testSummary: SPR (Biacore 3000), receptor captured on chip, ligand in solution
pKd: −log10 of the molar value.

{"binder": "ActRIIa/bΔ9m2 variant (SEQ ID NO: 38) (receptor, Engineered extracellular ActRIIa variant; not shown: Fusion partner and its linker) GAILGRSETQECLFYNANWELDRTNQTGVERCEGEKDKRLHCYATWRNISGSIEIVKKGCWLDDINCYDRTDCVETKENPQVYFCCCEGNMCNEKFSYFPEMEVTQPTS", "pKd": 9.77}
{"binder": "ActRIIa/bΔ9m4 variant (SEQ ID NO: 44) (receptor, Engineered extracellular ActRIIa variant; not shown: Carrier and linker) GAILGRSETQECLFYNANWELDRTNQTGVEPCEGEKDKRLHCYATWRNISGSIEIVKKGCWLDDFNCYDRTDCVETKENPQVYFCCCEGNMCNEKFSYFPEMEVTQPTS", "pKd": 9.43}
{"binder": "ActRIIa/bΔ9 variant (SEQ ID NO: 58) (receptor, Engineered extracellular ActRIIa variant; not shown: Fusion partner and its linker) GAILGRSETQECLFYNANWELDRTNQTGVERCEGEKDKRLHCYATWRNISGSIEIVKKGCWLDDFNCYDRTDCVETKENPQVYFCCCEGNMCNEKFSYFPEMEVTQPTS", "pKd": 9.67}
{"binder": "ActRIIa/b+ variant (SEQ ID NO: 150) (receptor, not shown: Fusion partner and its linker) GAILGRSETQECLFYNANWELERTNQTGVERCEGEKDKRLHCYATWRNISGSIEIVAKGCWLDDFNCYDRTDCVETEENPQVYFCCCEGNMCNEKFSYFPEMEVTQPTS", "pKd": 9.62}
{"binder": "ActRIIa/bmax1 variant (SEQ ID NO: 70) (receptor, Engineered extracellular ActRIIa variant; not shown: Carrier and linker) GAILGRSETQECLYYNANWELERTNQTGVERCEGEQDKRLHCYATWRNISGSIEIVKKGCWLDDFNCYDRTDCVETEENPQVYFCCCEGNMCNEKFSYFPEMEVTQPTS", "pKd": 9.63}
{"binder": "ActRIIb (SEQ ID NO: 74) (receptor, also called Human ActRIIb, extracellular portion; not shown: Carrier and linker) GRGEAETRECIYYNANWELERTNQSGLERCEGEQDKRLHCYASWRNSSGTIELVKKGCWLDDFNCYDRQECVATEENPQVYFCCCEGNFCNERFTHLPEAGGPEVTYEPPPTAPT", "pKd": 10.20}
{"binder": "ActRIIa/bΔ9m3 variant (SEQ ID NO: 41) (receptor, Engineered extracellular ActRIIa variant; not shown: Fusion partner and its linker) GAILGRSETQECLFYNANWELDRTNQTGVERCEGEKDKRLHCFATWRNISGSIEIVKKGCWLDDFNCYDRTDCVETKENPQVYFCCCEGNMCNEKFSYFPEMEVTQPTS", "pKd": 10.15}
{"binder": "ActRIIa/bmax2 variant (SEQ ID NO: 71) (receptor, not shown: Carrier and linker) GAILGRSETQECLFYNANWELERTNQTGVERCEGEKDKRLHCYATWRNISGSIEIVKKGCWLDDFNCYDRTDCVETEENPQVYFCCCEGNMCNEKFSYFPEMEVTQPTSNP", "pKd": 9.87}
{"binder": "ActRIIa/bmax3 variant (SEQ ID NO: 72) (receptor, not shown: Carrier and linker) GAILGRSETQECLFYNANWELERTNQTGVERCEGEKDKRLHCYATWRNISGSIEIVKKGCWLDDFNCYDRTDCVETEENPQVYFCCCEGNMCNEKFSYFPEMEVTQPTSNPVTPK", "pKd": 10.05}
